assay: Long-term stability of unprocessed plasma samples at −80°C; assay type: in vitro ADME; details: human plasma, 12 months, nominal 15 ng/mL
Measured Mean measured concentration values are reported for all entries that follow.
Please state the figure in ng/mL; there is no need to write the unit.

Worked cases, Mean measured concentration given:
molecule	Mean measured concentration, ng/mL
CCN1CCN(Cc2ccc(Nc3ncc(F)c(-c4cc(F)c5nc(C)n(C(C)C)c5c4)n3)nc2)CC1 [Abemaciclib, abemaciclib]	15.2
CC(=O)c1c(C)c2cnc(Nc3ccc(N4CCNCC4)cn3)nc2n(C2CCCC2)c1=O [Palbociclib, palbociclib]	15.6
Cc1nc2c(F)cc(-c3nc(Nc4ccc(CN5CCNCC5)cn4)ncc3F)cc2n1C(C)C [Abemaciclib-M2]	15.1

--- query ---
Supply reported Mean measured concentration belonging to this molecule: CN(C)C(=O)c1cc2cnc(Nc3ccc(N4CCNCC4)cn3)nc2n1C1CCCC1 [Ribociclib, ribociclib] 15.7

====

experiment: Processed sample stability in final extract; format: physicochemical; details: 4°C, autosampler, 25.1 h, nominal 15 ng/mL
Measured Mean measured concentration values are reported for all entries that follow.
Please state the figure in ng/mL; there is no need to write the unit.

Worked cases, Mean measured concentration given:
given.smiles	Mean measured concentration, ng/mL
CN(C)C(=O)c1cc2cnc(Nc3ccc(N4CCNCC4)cn3)nc2n1C1CCCC1	16.7
Cc1nc2c(F)cc(-c3nc(Nc4ccc(CN5CCNCC5)cn4)ncc3F)cc2n1C(C)C	16.5
CC(=O)c1c(C)c2cnc(Nc3ccc(N4CCNCC4)cn3)nc2n(C2CCCC2)c1=O	16.5

--- query ---
Supply reported Mean measured concentration belonging to this compound: CCN1CCN(Cc2ccc(Nc3ncc(F)c(-c4cc(F)c5nc(C)n(C(C)C)c5c4)n3)nc2)CC1 15.9

====

Measured Accuracy vs fresh QCs values are reported for all entries that follow.
experiment: Long-term stability of unprocessed plasma samples at −80°C; format: in vitro ADME; conditions: human plasma, 12 months, nominal 150 ng/mL
Please state the figure in %; there is no need to write the unit.

Worked cases, Accuracy vs fresh QCs given:
given.smiles	Accuracy vs fresh QCs [%]
Cc1nc2c(F)cc(-c3nc(Nc4ccc(CN5CCNCC5)cn4)ncc3F)cc2n1C(C)C	95.6
CN(C)C(=O)c1cc2cnc(Nc3ccc(N4CCNCC4)cn3)nc2n1C1CCCC1	105
CC(=O)c1c(C)c2cnc(Nc3ccc(N4CCNCC4)cn3)nc2n(C2CCCC2)c1=O	95.3

--- query ---
Supply reported Accuracy vs fresh QCs belonging to this compound: CCN1CCN(Cc2ccc(Nc3ncc(F)c(-c4cc(F)c5nc(C)n(C(C)C)c5c4)n3)nc2)CC1 99.0

====

assay: Reinjection stability in final extract; type: physicochemical; conditions: reinjected, 4°C, autosampler, 25.95 h, nominal 150 ng/mL
Measured Accuracy vs fresh QCs values are reported for all entries that follow.
Please state the figure in %; there is no need to write the unit.

given.smiles	Accuracy vs fresh QCs, %
CC(=O)c1c(C)c2cnc(Nc3ccc(N4CCNCC4)cn3)nc2n(C2CCCC2)c1=O	99.0
CN(C)C(=O)c1cc2cnc(Nc3ccc(N4CCNCC4)cn3)nc2n1C1CCCC1	101
CCN1CCN(Cc2ccc(Nc3ncc(F)c(-c4cc(F)c5nc(C)n(C(C)C)c5c4)n3)nc2)CC1	98.7

Supply reported Accuracy vs fresh QCs belonging to this compound: Cc1nc2c(F)cc(-c3nc(Nc4ccc(CN5CCNCC5)cn4)ncc3F)cc2n1C(C)C 96.5
